TARGET UNDER TEST: HLA-B*0702 (human)
DETAILS: remark: other sources report otherwise

| BINDER | UNIT SPEC | IC50 |
| --- | --- | --- |
| LPINALSNSL (modifications not checked) [Peptide 29.0085, HCV NS5 2474] | nM | 220 |
